target: immobilized lactase: Aspergillus oryzae lactase covalently attached through glutaraldehyde on macroporous phenol-formaldehyde based anion-exchange resin (Aspergillus oryzae, UniProt Q2UCU3)
Construct: obtained from a strain belonging to Aspergillus oryzae as extracellular enzyme
protocolText: Km and Ki of the immobilized lactase, general properties
conditionDetails: pH 6.65, 30°C, substrate; lactose; immobilized enzyme; read-out: Inhibition constant by galactose Ki
endpointLabel: pKi
The meaning of pKi here: minus log10 of the concentration in molar units.

# lookup: pKi of OC[C@H]1OC(O)[C@H](O)[C@@H](O)[C@H]1O (stereo partly shown)
1.52

* * *

target: lactase originated from Aspergillus oryzae (extracellular enzyme, unimmobilized) (Aspergillus oryzae, UniProt Q2UCU3)
Construct: obtained from a strain belonging to Aspergillus oryzae as extracellular enzyme; host or cells: Aspergillus oryzae strain (natural producer, secreted)
Sequence (Q2UCU3 19-1005): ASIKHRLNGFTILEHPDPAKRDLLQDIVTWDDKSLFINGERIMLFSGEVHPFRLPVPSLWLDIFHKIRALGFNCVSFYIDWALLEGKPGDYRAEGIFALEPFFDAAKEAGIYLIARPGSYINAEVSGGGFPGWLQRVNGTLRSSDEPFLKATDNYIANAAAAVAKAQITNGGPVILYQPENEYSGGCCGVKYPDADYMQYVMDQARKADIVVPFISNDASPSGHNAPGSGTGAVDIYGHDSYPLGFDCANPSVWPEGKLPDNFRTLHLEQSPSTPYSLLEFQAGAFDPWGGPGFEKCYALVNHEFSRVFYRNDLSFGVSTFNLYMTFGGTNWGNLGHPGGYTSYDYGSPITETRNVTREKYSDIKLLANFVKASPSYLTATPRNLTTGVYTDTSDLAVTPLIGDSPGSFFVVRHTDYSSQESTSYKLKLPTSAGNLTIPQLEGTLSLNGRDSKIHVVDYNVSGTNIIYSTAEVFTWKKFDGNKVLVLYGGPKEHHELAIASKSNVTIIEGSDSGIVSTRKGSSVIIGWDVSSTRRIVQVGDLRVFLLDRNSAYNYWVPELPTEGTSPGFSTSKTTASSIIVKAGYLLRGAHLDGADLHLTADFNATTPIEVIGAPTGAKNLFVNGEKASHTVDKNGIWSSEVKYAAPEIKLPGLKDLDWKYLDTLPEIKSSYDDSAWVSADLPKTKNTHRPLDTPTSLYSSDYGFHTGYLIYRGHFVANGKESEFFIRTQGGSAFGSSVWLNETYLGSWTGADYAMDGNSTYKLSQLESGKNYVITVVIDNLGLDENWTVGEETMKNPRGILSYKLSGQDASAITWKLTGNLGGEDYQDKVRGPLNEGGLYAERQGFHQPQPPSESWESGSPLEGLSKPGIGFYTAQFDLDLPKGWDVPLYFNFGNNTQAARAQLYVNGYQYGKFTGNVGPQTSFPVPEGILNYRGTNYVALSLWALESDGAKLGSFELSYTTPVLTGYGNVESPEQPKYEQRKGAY
protocolText: Km and Ki of free (unimmobilized) Aspergillus oryzae lactase
Assay type: biochemical
conditionDetails: pH 4.5, 30°C, substrate; lactose; free enzyme; read-out: Inhibition constant Ki by galactose
endpointLabel: Ki (mM)
Write down the numeric answer in mM and omit the unit.

# lookup: Ki of OC[C@H]1OC(O)[C@H](O)[C@@H](O)[C@H]1O (stereo partly shown)
6

FYI, the data here is from patent EP0037667A2.
